ASSAY_INFO: Single intravenous dose escalation of P5P, plasma pharmacokinetics (Examples Two and Three)
Assay type: in vivo, human
CONDITION_SET: both sexes, human; Group 4, P5P 20 mg/kg single iv; plasma PA; mean
MEASURED_ENDPOINT: AUC(0-inf) (ng·h/mL)
Numbers only, in ng·h/mL.

Any idea what its AUC(0-inf) is? The compound is Cc1ncc(CO)c(C(=O)O)c1O
53000

====

ASSAY_INFO: Single intravenous dose escalation of P5P, plasma pharmacokinetics (Examples Two and Three)
Format: in vivo, human
CONDITION_SET: both sexes, human, plasma, iv, 1 mg/kg, Group 1, P5P 1 mg/kg single iv; plasma PA; mean
MEASURED_ENDPOINT: MRT (h)
Give bare numbers, in h.

Given the molecule Cc1ncc(CO)c(C(=O)O)c1O , what is its reported MRT?
4.5
